# Test system: AML12 hepatocytes
# test_protocol: Resazurin reduction assay (RRA), cytotoxicity on normal hepatocytes
# Format: cell-based
# condition_set: Mus musculus; AML12 normal hepatocytes, 72 h
Recorded IC50 by entry
measurement_name: IC50

{"columns": ["molecule", "system", "measurement_name", "reported_result"],
 "data": [
  ["O=c1ccc2nccc3c4ccccc4n1c23", "AML12 hepatocytes", "IC50", "> 100 µM"],
  ["C[C@@H](O)C1CCC2C3CC=C4C[C@@H](O[C@@H]5OC[C@H](O)[C@H](O)[C@H]5O[C@@H]5O[C@H](CO)[C@@H](O)[C@H](O)[C@H]5O)CC[C@]4(C)C3CC[C@@]21C (stereo partly drawn)", "AML12 hepatocytes", "IC50", "> 100 µM"],
  ["COc1cc([C@H]2Oc3c(OC)cc4ccc(=O)oc4c3O[C@@H]2CO)cc(OC)c1O", "AML12 hepatocytes", "IC50", "> 100 µM"]
]}

The values you see were collected from paper PMC9930359.
